Data credit: ChEMBL document CHEMBL6083266

- Assay Overview: Cytotoxicity against mouse fibroblast cells assessed as cell viability at […] (reference value: 90.23 %)
- Format: toxicity, cell-based
- Parameters: dose or concentration left out as unconfirmed
- Test Settings: read-out: Activity

>  <Mol Smiles>
CCOC(=O)C1(C(=O)OCC)C[C@@H](c2c[nH]c3ccccc23)O[C@H]1c1cn(-c2ccccc2)nc1-c1ccc(Cl)cc1

>  <viability [%]>
98.1

$$$$
>  <Mol Smiles>
CCOC(=O)C1(C(=O)OCC)C[C@@H](c2c[nH]c3ccc(F)cc23)O[C@H]1c1cn(-c2ccccc2)nc1-c1ccc(OC)cc1

>  <viability [%]>
94.6

$$$$
>  <Mol Smiles>
CCOC(=O)C1(C(=O)OCC)C[C@@H](c2c[nH]c3ccc(Cl)cc23)O[C@H]1c1cn(-c2ccccc2)nc1-c1ccccc1

>  <viability [%]>
94.3

$$$$
>  <Mol Smiles>
CCOC(=O)C1(C(=O)OCC)C[C@@H](c2c[nH]c3ccc(F)cc23)O[C@H]1c1cn(-c2ccccc2)nc1-c1ccc(C)cc1

>  <viability [%]>
96.5

$$$$
>  <Mol Smiles>
CCOC(=O)C1(C(=O)OCC)C[C@@H](c2c[nH]c3ccc(OC)cc23)O[C@H]1c1cn(-c2ccccc2)nc1-c1ccc(OC)cc1

>  <viability [%]>
90.1

$$$$
>  <Mol Smiles>
CCOC(=O)C1(C(=O)OCC)C[C@@H](c2c[nH]c3ccc(F)cc23)O[C@H]1c1cn(-c2ccccc2)nc1-c1ccccc1

>  <viability [%]>
95.7

$$$$
>  <Mol Smiles>
CCOC(=O)C1(C(=O)OCC)C[C@@H](c2c[nH]c3ccccc23)O[C@H]1c1cn(-c2ccccc2)nc1-c1ccc(OC)cc1

>  <viability [%]>
94.3

$$$$
>  <Mol Smiles>
CCOC(=O)C1(C(=O)OCC)C[C@@H](c2c[nH]c3ccc(C)cc23)O[C@H]1c1cn(-c2ccccc2)nc1-c1ccc(F)cc1

>  <viability [%]>
99.2

$$$$
>  <Mol Smiles>
CCOC(=O)C1(C(=O)OCC)C[C@@H](c2c[nH]c3ccc(F)cc23)O[C@H]1c1cn(-c2ccccc2)nc1-c1ccc(F)cc1

>  <viability [%]>
96.2

$$$$
>  <Mol Smiles>
CCOC(=O)C1(C(=O)OCC)C[C@@H](c2c[nH]c3ccc(C)cc23)O[C@H]1c1cn(-c2ccccc2)nc1-c1ccc(C)cc1

>  <viability [%]>
94.2

$$$$
>  <Mol Smiles>
CCOC(=O)C1(C(=O)OCC)C[C@@H](c2c[nH]c3ccc(OC)cc23)O[C@H]1c1cn(-c2ccccc2)nc1-c1ccc(Cl)cc1

>  <viability [%]>
88.8

$$$$
>  <Mol Smiles>
CCOC(=O)C1(C(=O)OCC)C[C@@H](c2c[nH]c3ccc(F)cc23)O[C@H]1c1cn(-c2ccccc2)nc1-c1ccc(Cl)cc1

>  <viability [%]>
99.1

$$$$
>  <Mol Smiles>
CCOC(=O)C1(C(=O)OCC)C[C@@H](c2c[nH]c3ccc(C)cc23)O[C@H]1c1cn(-c2ccccc2)nc1-c1ccc(Cl)cc1

>  <viability [%]>
92.3

$$$$
>  <Mol Smiles>
CCOC(=O)C1(C(=O)OCC)C[C@@H](c2c[nH]c3ccc(Cl)cc23)O[C@H]1c1cn(-c2ccccc2)nc1-c1ccc(Cl)cc1

>  <viability [%]>
95.2

$$$$

###

- System: Candida albicans
- Assay Overview: Antimicrobial activity against Candida albicans by serial dilution method
- Assay type: functional
# MIC per entry

>  <Mol Smiles>
CCOC(=O)C1(C(=O)OCC)C[C@@H](c2c[nH]c3ccccc23)O[C@@H]1c1cn(-c2ccccc2)nc1-c1ccc(Cl)cc1

>  <MIC>
12.5 µg/mL

$$$$
>  <Mol Smiles>
CC1(C)S[C@@H]2[C@H](NC(=O)[C@H](N)c3ccc(O)cc3)C(=O)N2[C@H]1C(=O)O

>  <MIC>
6.25 µg/mL

$$$$
>  <Mol Smiles>
CCOC(=O)C1(C(=O)OCC)C[C@@H](c2c[nH]c3ccccc23)O[C@H]1c1cn(-c2ccccc2)nc1-c1ccc(Cl)cc1

>  <MIC>
12.5 µg/mL

$$$$
>  <Mol Smiles>
OC(Cn1cncn1)(Cn1cncn1)c1ccc(F)cc1F

>  <MIC>
6.25 µg/mL

$$$$

###

As shown below, each of these compounds has a reported viability value.
- Assay Overview: Cytotoxicity against mouse fibroblast cells assessed as cell viability at […] (reference value: 90.23 %)
- Format: toxicity, cell-based
- Parameters: dose or concentration left out as unconfirmed
- Test Settings: read-out: Activity
Readout Type: viability (%)

>  <Mol Smiles>
CCOC(=O)C1(C(=O)OCC)C[C@@H](c2c[nH]c3ccc(C)cc23)O[C@H]1c1cn(-c2ccccc2)nc1-c1ccccc1

>  <Readout Type>
viability

>  <Experimental Result>
92.3

$$$$
>  <Mol Smiles>
CCOC(=O)C1(C(=O)OCC)C[C@@H](c2c[nH]c3ccc(OC)cc23)O[C@H]1c1cn(-c2ccccc2)nc1-c1ccccc1

>  <Readout Type>
viability

>  <Experimental Result>
90.1

$$$$
>  <Mol Smiles>
CCOC(=O)C1(C(=O)OCC)C[C@@H](c2c[nH]c3ccccc23)O[C@H]1c1cn(-c2ccccc2)nc1-c1ccc(C)cc1

>  <Readout Type>
viability

>  <Experimental Result>
95.3

$$$$
>  <Mol Smiles>
CCOC(=O)C1(C(=O)OCC)C[C@@H](c2c[nH]c3ccc(Cl)cc23)O[C@H]1c1cn(-c2ccccc2)nc1-c1ccc(OC)cc1

>  <Readout Type>
viability

>  <Experimental Result>
91.4

$$$$

###

- Assay Overview: Cytotoxicity against mouse fibroblast cells assessed as cell viability at […] (reference value: 90.23 %)
- Assay type: toxicity, cell-based
- Design: dose or concentration left out as unconfirmed
- Test Settings: read-out: Activity
Below: a set of entries, each annotated with reported viability.
Readout Type: viability (%)

>  <Mol Smiles>
CCOC(=O)C1(C(=O)OCC)C[C@@H](c2c[nH]c3ccc(Cl)cc23)O[C@H]1c1cn(-c2ccccc2)nc1-c1ccc(F)cc1

>  <Experimental Result>
90.5

$$$$
>  <Mol Smiles>
CCOC(=O)C1(C(=O)OCC)C[C@@H](c2c[nH]c3ccccc23)O[C@H]1c1cn(-c2ccccc2)nc1-c1ccccc1

>  <Experimental Result>
93.2

$$$$
>  <Mol Smiles>
CCOC(=O)C1(C(=O)OCC)C[C@@H](c2c[nH]c3ccc(OC)cc23)O[C@H]1c1cn(-c2ccccc2)nc1-c1ccc(C)cc1

>  <Experimental Result>
88.9

$$$$
>  <Mol Smiles>
CCOC(=O)C1(C(=O)OCC)C[C@@H](c2c[nH]c3ccc(OC)cc23)O[C@H]1c1cn(-c2ccccc2)nc1-c1ccc(F)cc1

>  <Experimental Result>
94.8

$$$$
>  <Mol Smiles>
CCOC(=O)C1(C(=O)OCC)C[C@@H](c2c[nH]c3ccc(Cl)cc23)O[C@H]1c1cn(-c2ccccc2)nc1-c1ccc(C)cc1

>  <Experimental Result>
97.6

$$$$
>  <Mol Smiles>
CCOC(=O)C1(C(=O)OCC)C[C@@H](c2c[nH]c3ccccc23)O[C@H]1c1cn(-c2ccccc2)nc1-c1ccc(F)cc1

>  <Experimental Result>
99.1

$$$$
>  <Mol Smiles>
CCOC(=O)C1(C(=O)OCC)C[C@@H](c2c[nH]c3ccc(C)cc23)O[C@H]1c1cn(-c2ccccc2)nc1-c1ccc(OC)cc1

>  <Experimental Result>
93.5

$$$$
